# testSystem: MMP-2 (Homo sapiens, UniProt P08253)
# Construct: purchased SIGMA PF023
# Sequence (P08253 110-660): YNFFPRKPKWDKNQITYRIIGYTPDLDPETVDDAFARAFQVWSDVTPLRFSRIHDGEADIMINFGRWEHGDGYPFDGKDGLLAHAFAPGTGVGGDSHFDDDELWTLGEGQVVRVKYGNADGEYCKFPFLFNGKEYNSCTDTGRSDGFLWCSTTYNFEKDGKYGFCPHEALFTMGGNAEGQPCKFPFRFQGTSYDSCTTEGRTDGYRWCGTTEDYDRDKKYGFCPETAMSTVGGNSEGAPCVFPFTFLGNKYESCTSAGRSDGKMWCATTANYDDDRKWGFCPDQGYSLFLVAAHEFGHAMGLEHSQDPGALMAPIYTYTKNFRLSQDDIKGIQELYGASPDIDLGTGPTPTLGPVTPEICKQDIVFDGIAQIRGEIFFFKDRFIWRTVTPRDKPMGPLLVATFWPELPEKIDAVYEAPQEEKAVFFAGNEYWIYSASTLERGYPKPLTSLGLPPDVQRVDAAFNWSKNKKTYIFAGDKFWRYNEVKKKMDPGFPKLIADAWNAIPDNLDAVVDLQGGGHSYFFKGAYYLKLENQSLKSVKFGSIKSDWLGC
# measurementProtocol: FRET peptide cleavage efficiency with MMP-2
# Format: biochemical
# conditionsUsed: t = 120 min; 200 uM linker, 1 ug/ml protease, 37° C., buffer C pH 7.5
Square brackets hold non-standard residues; d marks the D form. Ends that are not written are not given here. Tyr(3-NO2) = N[C@@H](Cc1ccc(O)c([N+](=O)[O-])c1)C(=O)O; 2Abz = Nc1ccccc1C(=O)O
measureName: % cleavage MMP-2 t = 120 min (%)
Form entry: value (%) — number only.

# annotated cases, reported % cleavage MMP-2 t = 120 min shown
In [3]: df
Out[3]:
                                  substance                            testsystem  reportedmeasurement
0  SGRVLTLRKAALPLAM ([2Abz]SGRVLTLRKAALPLAM[Tyr(3-NO2)]-NH2) [LNK020]  MMP-2 (Homo sapiens, UniProt P08253)                   99
1  RQRRSVVGG ([2Abz]RQRRSVVGG[Tyr(3-NO2)]-NH2) [LNK029]  MMP-2 (Homo sapiens, UniProt P08253)                    0
2  RGRRHSSKLQPLGYFGKL ([2Abz]RGRRHSSKLQPLGYFGKL[Tyr(3-NO2)]-NH2) [LNK062]  MMP-2 (Homo sapiens, UniProt P08253)                  100
3  RQRRSAPLGLAG ([2Abz]RQRRSAPLGLAG[Tyr(3-NO2)]-NH2) [LNK009]  MMP-2 (Homo sapiens, UniProt P08253)                   99
4  SGRVLRKAGPAGLVG ([2Abz]SGRVLRKAGPAGLVG[Tyr(3-NO2)]-NH2) [LNK013]  MMP-2 (Homo sapiens, UniProt P08253)                  100
5  SSQYSSPG ([2Abz]SSQYSSPG[Tyr(3-NO2)]-NH2) [LNK069]  MMP-2 (Homo sapiens, UniProt P08253)                   13

Task: Give % cleavage MMP-2 t = 120 min for the following substance: RYGKSAPLGLAG ([2Abz]RYGKSAPLGLAG[Tyr(3-NO2)]-NH2) [LNK027]
Output: 99

Task: Give % cleavage MMP-2 t = 120 min for the following substance: RGRRPLGYFGKL ([2Abz]RGRRPLGYFGKL[Tyr(3-NO2)]-NH2) [LNK057]
Output: 100

====

# testSystem: uPA (Homo sapiens, UniProt P00749)
# measurementProtocol: FRET peptide cleavage efficiency with uPA
# Assay type: biochemical
# conditionsUsed: t = 60 min; 200 uM linker, 1 ug/ml protease, 37° C., buffer A pH 8.5
Square brackets hold non-standard residues; d marks the D form. Ends that are not written are not given here. Tyr(3-NO2) = N[C@@H](Cc1ccc(O)c([N+](=O)[O-])c1)C(=O)O; 2Abz = Nc1ccccc1C(=O)O
Catalogue of substances with associated % cleavage uPA t = 60 min
Form entry: value (%) — number only.

>>> df
                                  substance                measurename  reportedmeasurement
0  SSQYSSPG ([2Abz]SSQYSSPG[Tyr(3-NO2)]-NH2) [LNK069]  % cleavage uPA t = 60 min                    0
1  SGRVLPANLVG ([2Abz]SGRVLPANLVG[Tyr(3-NO2)]-NH2) [LNK015]  % cleavage uPA t = 60 min                    0
2  SSRGRRGPYMLQG ([2Abz]SSRGRRGPYMLQG[Tyr(3-NO2)]-NH2) [LNK021]  % cleavage uPA t = 60 min                   16
3  RGRRPLGYFGKL ([2Abz]RGRRPLGYFGKL[Tyr(3-NO2)]-NH2) [LNK057]  % cleavage uPA t = 60 min                    0
4  HSSKLQYFGKL ([2Abz]HSSKLQYFGKL[Tyr(3-NO2)]-NH2) [LNK061]  % cleavage uPA t = 60 min                    0
5  RGRRPLGLAGGSG ([2Abz]RGRRPLGLAGGSG[Tyr(3-NO2)]-NH2) [LNK051]  % cleavage uPA t = 60 min                    0

Task: Give % cleavage uPA t = 60 min for the following substance: RGRRVANPLGYFGKL ([2Abz]RGRRVANPLGYFGKL[Tyr(3-NO2)]-NH2) [LNK058]
Output: 5

Task: Give % cleavage uPA t = 60 min for the following substance: RQRRSAAPLGLAG ([2Abz]RQRRSAAPLGLAG[Tyr(3-NO2)]-NH2) [LNK028]
Output: 1

Task: Give % cleavage uPA t = 60 min for the following substance: KWGKSAPLGLAG ([2Abz]KWGKSAPLGLAG[Tyr(3-NO2)]-NH2) [LNK026]
Output: 1

Task: Give % cleavage uPA t = 60 min for the following substance: RSSYRSL ([2Abz]RSSYRSL[Tyr(3-NO2)]-NH2) [LNK075]
Output: 9

Task: Give % cleavage uPA t = 60 min for the following substance: HSSKLQL ([2Abz]HSSKLQL[Tyr(3-NO2)]-NH2) [LNK078]
Output: 0

Task: Give % cleavage uPA t = 60 min for the following substance: KLYSSKQ ([2Abz]KLYSSKQ[Tyr(3-NO2)]-NH2) [LNK071]
Output: 0

====

# testSystem: MMP-2 (Homo sapiens)
# Construct: purchased SIGMA PF023
# Sequence (P08253 110-660): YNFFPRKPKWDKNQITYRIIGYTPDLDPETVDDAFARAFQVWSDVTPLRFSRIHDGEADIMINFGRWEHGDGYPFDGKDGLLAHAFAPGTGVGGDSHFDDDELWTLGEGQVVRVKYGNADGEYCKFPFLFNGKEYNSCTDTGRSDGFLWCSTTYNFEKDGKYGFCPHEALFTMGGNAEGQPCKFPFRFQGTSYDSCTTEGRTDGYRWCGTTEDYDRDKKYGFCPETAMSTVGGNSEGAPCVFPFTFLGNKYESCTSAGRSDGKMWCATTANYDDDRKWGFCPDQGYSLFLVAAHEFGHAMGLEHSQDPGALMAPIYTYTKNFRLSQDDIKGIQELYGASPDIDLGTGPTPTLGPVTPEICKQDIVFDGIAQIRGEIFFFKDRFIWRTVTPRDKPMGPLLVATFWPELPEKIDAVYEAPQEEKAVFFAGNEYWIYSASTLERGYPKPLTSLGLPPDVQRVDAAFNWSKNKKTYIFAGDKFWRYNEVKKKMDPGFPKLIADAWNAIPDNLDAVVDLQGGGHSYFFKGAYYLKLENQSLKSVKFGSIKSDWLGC
# measurementProtocol: FRET peptide cleavage efficiency with MMP-2
# Format: biochemical
# conditionsUsed: t = 60 min; 200 uM linker, 1 ug/ml protease, 37° C., buffer C pH 7.5
Square brackets hold non-standard residues; d marks the D form. Ends that are not written are not given here. Tyr(3-NO2) = N[C@@H](Cc1ccc(O)c([N+](=O)[O-])c1)C(=O)O; 2Abz = Nc1ccccc1C(=O)O
measureName: % cleavage MMP-2 t = 60 min (%)
Form entry: value (%) — number only.

# annotated cases, reported % cleavage MMP-2 t = 60 min shown
                                  substance                  measurename  reportedmeasurement
0  SGRVANYFGKL ([2Abz]SGRVANYFGKL[Tyr(3-NO2)]-NH2) [LNK054]  % cleavage MMP-2 t = 60 min                  100
1  RGRRPLGLAG ([2Abz]RGRRPLGLAG[Tyr(3-NO2)]-NH2) [LNK049]  % cleavage MMP-2 t = 60 min                  100
2  SGRVLRKAGPANLVG ([2Abz]SGRVLRKAGPANLVG[Tyr(3-NO2)]-NH2) [LNK014]  % cleavage MMP-2 t = 60 min                   97
3  SGRVLTLRKAPWGLLE ([2Abz]SGRVLTLRKAPWGLLE[Tyr(3-NO2)]-NH2) [LNK004]  % cleavage MMP-2 t = 60 min                   50
4  SSLYSSPG ([2Abz]SSLYSSPG[Tyr(3-NO2)]-NH2) [LNK065]  % cleavage MMP-2 t = 60 min                   12
5  RSSYRSL ([2Abz]RSSYRSL[Tyr(3-NO2)]-NH2) [LNK075]  % cleavage MMP-2 t = 60 min                   60
6  SGRVANPLGGSG ([2Abz]SGRVANPLGGSG[Tyr(3-NO2)]-NH2) [LNK053]  % cleavage MMP-2 t = 60 min                    5
7  SQYQSSPG ([2Abz]SQYQSSPG[Tyr(3-NO2)]-NH2) [LNK067]  % cleavage MMP-2 t = 60 min                    5
8  SGRVANLVG (not fully specified (N-terminus, C-terminus)) [LNK017]  % cleavage MMP-2 t = 60 min                   99
9  SGRVLPAGLVG ([2Abz]SGRVLPAGLVG[Tyr(3-NO2)]-NH2) [LNK007]  % cleavage MMP-2 t = 60 min                   95

Task: Give % cleavage MMP-2 t = 60 min for the following substance: GSGSGSGS ([2Abz]GSGSGSGS[Tyr(3-NO2)]-NH2) [LNK064]
Output: 0

Task: Give % cleavage MMP-2 t = 60 min for the following substance: RGRRAANLVRPLGYFGKL ([2Abz]RGRRAANLVRPLGYFGKL[Tyr(3-NO2)]-NH2) [LNK060]
Output: 100

Task: Give % cleavage MMP-2 t = 60 min for the following substance: KLYSSKQ ([2Abz]KLYSSKQ[Tyr(3-NO2)]-NH2) [LNK071]
Output: 13

Task: Give % cleavage MMP-2 t = 60 min for the following substance: SQLYSSPG ([2Abz]SQLYSSPG[Tyr(3-NO2)]-NH2) [LNK068]
Output: 9

Task: Give % cleavage MMP-2 t = 60 min for the following substance: SGRVLPANLVG ([2Abz]SGRVLPANLVG[Tyr(3-NO2)]-NH2) [LNK015]
Output: 99

Task: Give % cleavage MMP-2 t = 60 min for the following substance: RGRRSGRAANLVRPLGYFGKL ([2Abz]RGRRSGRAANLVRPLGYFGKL[Tyr(3-NO2)]-NH2) [LNK059]
Output: 100

Task: Give % cleavage MMP-2 t = 60 min for the following substance: KLFSSKQ ([2Abz]KLFSSKQ[Tyr(3-NO2)]-NH2) [LNK072]
Output: 13

Task: Give % cleavage MMP-2 t = 60 min for the following substance: RQRRSVVGG ([2Abz]RQRRSVVGG[Tyr(3-NO2)]-NH2) [LNK029]
Output: 0

Task: Give % cleavage MMP-2 t = 60 min for the following substance: RGRRHSSKLQPLGYFGKL ([2Abz]RGRRHSSKLQPLGYFGKL[Tyr(3-NO2)]-NH2) [LNK062]
Output: 100
